# method-summary: Plasma and brain unbound concentrations by LC/MS/MS
# stated-conditions: rat, brain, intraperitoneal, [Brain]unbound, esreboxetine 10 mg/kg + morphine 1 mg/kg; 75 min post-dosing
quantity-measured: concentration at 75 min (ng/g)
Note: unit ng/g is implicit; provide only the numeric part.

Quick one: concentration at 75 min for CCOc1ccccc1O[C@@H](c1ccccc1)[C@@H]1CNCCO1 [esreboxetine] ?
12.7

----------
# method-summary: Plasma and brain unbound concentrations by LC/MS/MS
# stated-conditions: rat, brain, intraperitoneal, [Brain]unbound, duloxetine 5 mg/kg + ondansetron 3 + morphine 1 mg/kg; 75 min post-dosing
quantity-measured: concentration at 75 min (ng/g)
Note: unit ng/g is implicit; provide only the numeric part.

Quick one: concentration at 75 min for CNCC[C@H](Oc1cccc2ccccc12)c1cccs1 ?
16.5
